Listed here: items and their measured EC50.
Biological target: Prostaglandin E2 receptor EP4 subtype (Homo sapiens)
Sequence (P35408 whole entry): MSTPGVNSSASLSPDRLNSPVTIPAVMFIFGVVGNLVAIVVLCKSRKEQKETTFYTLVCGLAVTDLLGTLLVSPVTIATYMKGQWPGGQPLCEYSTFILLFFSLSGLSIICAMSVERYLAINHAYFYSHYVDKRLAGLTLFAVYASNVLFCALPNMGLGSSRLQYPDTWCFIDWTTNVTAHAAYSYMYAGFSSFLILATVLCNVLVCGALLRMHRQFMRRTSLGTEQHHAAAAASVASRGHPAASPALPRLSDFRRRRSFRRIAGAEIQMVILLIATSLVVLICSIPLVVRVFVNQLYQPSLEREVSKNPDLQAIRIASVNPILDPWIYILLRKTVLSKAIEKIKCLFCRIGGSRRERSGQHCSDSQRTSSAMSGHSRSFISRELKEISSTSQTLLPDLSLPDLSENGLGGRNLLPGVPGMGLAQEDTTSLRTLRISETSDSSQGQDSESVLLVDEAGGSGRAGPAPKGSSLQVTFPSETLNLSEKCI
Experiment: Agonist activity against recombinant prostanoid EP4 receptor stably transfected in CHO cells
Kindly answer with a numeric value in nM, unit omitted.

Field: example entries. Status: answers known.
// EC50 value for O=C(O)CCCCCCN1C(=O)CC[C@@H]1/C=C/C(O)c1cccc(-c2ccc(Cl)cc2)c1 (stereo not given in full) : 50

// EC50 value for O=C(O)CCCCCCN1C(=O)CC[C@@H]1/C=C/C(O)c1cccc(-c2cccc(Cl)c2)c1 (stereo not given in full) : 170

// EC50 value for O=C(O)CCCCCCN1C(=O)CC[C@@H]1/C=C/C(O)c1cccc(Oc2ccccc2)c1 (stereo not given in full) : 85

Shifting focus to the compound that follows.
// EC50 value for O=C(O)CCCCCCN1C(=O)CC[C@@H]1/C=C/C(O)c1cccc(C(F)(F)F)c1 (stereo not given in full) : 500

// provenance: ChEMBL document CHEMBL1137967
